- subject-of-test: cathepsin S (Homo sapiens, UniProt P25774)
- Construct: purchased R&D Systems 1183-CY-010
- Sequence (P25774 115-331): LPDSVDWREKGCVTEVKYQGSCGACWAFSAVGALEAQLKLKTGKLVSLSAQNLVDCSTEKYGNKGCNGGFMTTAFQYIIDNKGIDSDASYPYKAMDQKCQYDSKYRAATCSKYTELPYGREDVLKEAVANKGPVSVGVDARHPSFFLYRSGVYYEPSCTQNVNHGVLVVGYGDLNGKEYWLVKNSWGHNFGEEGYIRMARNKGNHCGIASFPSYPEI
- experimental-protocol: Specificity of inhibitors: cathepsin S (Z-Phe-Arg-AMC substrate)
- Format: biochemical
- test-parameters: cathepsin S, pH 7.2
- Method: Specificity of inhibitors for other cysteine cathepsin proteases. The effects of Z-Arg-Lys-AOMK and Z-Glu-Lys-AOMK on cathepsin V, L, K, S, X, H and C activities were assessed. […] For all assays containing peptide-AMC substrates the fluorescent microplate reader settings were the same as outlined above for cathepsin B. For the cathepsin X assay, the plate reader was set to excitation 320 nm, emission 400 nm, gain 105, top optics and read height 1 mm. […]
value-type: IC50

Value of IC50 reported for the compound Cc1cccc(C)c1C(=O)OCC(=O)C(CCCCN)NC(=O)C(CCC(=O)O)NC(=O)OCc1ccccc1 (stereo not shown) is > 16 µM
